Task for the reader: assign each of the following molecules its reported inhibition.
Biological target: Galanin receptor type 3 (Homo sapiens)
Assay: GalR3 antagonists in HEK293 cells, primary screen, cell-based, fluorescence readout (AID 651719);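 note: forskolin and galanin both at EC90 stimulate the cells; cAMP rise reported by CNG channel membrane potential dye signal; 0% = forskolin plus galanin with DMSO and 100% = forskolin alone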
Settings: HEK293 GalR3-CNG cAMP membrane potential fluorescence; at 3 µM; active compounds read high; galR3 body fused to GalR1 C-terminus
The whole screen tested about 360,000 compounds, of which about 1,600 (0.44%) were called active. This is one part of a sample in which actives are shown more often than they occur.
Numeric only. Scale: %

Prompt line: Bench note: what inhibition did `COc1cc(NC(=O)c2cc([N+](=O)[O-])ccc2Br)ccc1NC(=O)c1ccco1` show?
Response line: 22.4

Prompt line: Bench note: what inhibition did COc1ccc(N(C(=O)CNC(=O)c2ccco2)C(C(=O)NCC2CCCO2)c2ccccc2)cc1Cl (centres undefined) show?
Response line: 17.1

Prompt line: Bench note: what inhibition did `COc1cccc(CNC(=O)[C@H]2CCCN2C(=O)[C@H]2CCCN2C(=O)C2CCCCC2)c1` show?
Response line: -6.3

Prompt line: Bench note: what inhibition did `COC(=O)[C@]12C[C@H](CC(=O)NCc3cccc(C(F)(F)F)c3)C(=O)N(Cc3ccc4c(c3)OCO4)C1=C[C@H](COCc1ccccc1)O[C@@H]2C` show?
Response line: -4.92

Prompt line: Bench note: what inhibition did `COc1ccc(N2CCN(C(=O)c3ccccc3NC(=O)C3=C(C)OCCS3)CC2)cc1` show?
Response line: -6.97

Prompt line: Bench note: what inhibition did `CCOC(=O)N1CCN(C(=O)C[C@H]2C[C@@]3(C(=O)OC)C(=C[C@H](C4CCCC4)O[C@@H]3C)N(Cc3ccccc3)C2=O)CC1` show?
Response line: -2.22

Prompt line: Bench note: what inhibition did `CCCCNC(=O)c1ccccc1NC(=O)C1=C(C)OCCS1` show?
Response line: 103

Prompt line: Bench note: what inhibition did `O=C(Nc1ccc(CSc2ccccc2)cc1)c1ccc(CN2CCOCC2)cc1` show?
Response line: 95.3

Prompt line: Bench note: what inhibition did `COC(=O)Cc1nnn2c1[C@H](C)[C@@H](OC)c1cc(Br)ccc1-2` show?
Response line: -5.13
